Ref: the supplement of paper PMC7724964

- tested_target: PABPC1 544-623 PABP (domain begin residue: 544, domain end residue: 623)
- test_protocol: phage ELISA signal ratio (GST-PRM binding over GST background); higher = stronger binding of peptide-phage to the PRM
property: phage ELISA signal ratio
One number for each entry.

Consider the reported phage ELISA signal ratio for these binders:
# binder, observed
records = [
    ("TIDWESVIKTYSPWLD", 29.8),
    ("LPGEYNMMEWRQAVMG", 3.49),
    ("KPVPSFWVDWHVQAMT", 20.9),
]

Next up:
Field phage ELISA signal ratio (entry QQLADIPTYEWLQRNH ) reads 27
